Source of measurements: patent US20260159512A1

- assay.system: BCAT2 (Homo sapiens)
- protocol.details: BCAT2 in vitro cell inhibition using engineered A549 cells (KMV cell assay, 13C6-KMV by LC-MS/MS)
- Format: cell-based
- Set-up: The result was an engineered A549 cell line that expressed endogenous BCAT2; endogenous in cells; host or cells: A549 cells with MUT and BCAT1 knocked out by CRISPR/CAS9
- stated.conditions: average where tested multiple times
quantity.kind: IC50

Worked cases, answers included:
molecule: CC(C)Oc1nc2cnc(-n3nccn3)cc2n1[C@@H]1CCC[C@H](NC(=O)c2ncc(C(F)F)s2)C1
IC50: > 1000 nM
//
molecule: CC(C)Cc1nc2cnc(-c3nc[nH]n3)cc2n1[C@@H]1CCC[C@H](NC(=O)c2ccc(Cl)s2)[C@H]1O
IC50: ≤ 100 nM
//
molecule: O=C(N[C@@H]1C[C@@H](O)C[C@H](n2c(-c3ccccc3F)nc3cnc(-n4nccn4)cc32)C1)c1ncc(Cl)s1 (single isomer, unassigned)
IC50: 100 to 500 nM
//
molecule: O=C(N[C@@H]1C[C@@H](O)C[C@H](n2c(-c3ccccc3F)nc3cnc(-c4ncco4)cc32)C1)c1ncc(Cl)s1
IC50: > 1000 nM
//
molecule: O=C(N[C@H]1CCC[C@@H](n2c(-c3ncccc3F)nc3cnc(-n4ccnn4)nc32)C1)c1ncc(C(F)F)s1
IC50: > 1000 nM

Please find the next molecule below.
input: Quick check: IC50 of `CC(C)Cc1nc2cnc(-c3cccc(F)n3)cc2n1[C@@H]1CCC[C@H](NC(=O)c2ncc(Cl)s2)[C@H]1O` ?
output: 100 to 500 nM

====

- assay.system: BCAT2 (Homo sapiens, UniProt O15382)
- Sequence (O15382 28-392): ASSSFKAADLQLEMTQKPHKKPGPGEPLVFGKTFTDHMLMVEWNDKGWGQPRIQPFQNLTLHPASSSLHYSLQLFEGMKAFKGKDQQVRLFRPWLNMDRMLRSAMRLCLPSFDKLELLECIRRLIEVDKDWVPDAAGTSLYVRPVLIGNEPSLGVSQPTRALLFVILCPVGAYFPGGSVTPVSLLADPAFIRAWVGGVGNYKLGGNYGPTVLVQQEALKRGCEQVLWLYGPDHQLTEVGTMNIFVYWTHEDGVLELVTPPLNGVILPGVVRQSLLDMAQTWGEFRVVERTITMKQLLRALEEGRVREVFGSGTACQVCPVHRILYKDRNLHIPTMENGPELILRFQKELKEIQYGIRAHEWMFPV
- protocol.details: BCAT2 in vitro cell inhibition using engineered A549 cells (KMV cell assay, 13C6-KMV by LC-MS/MS)
- Assay type: cell-based
- Design: The result was an engineered A549 cell line that expressed endogenous BCAT2; endogenous in cells; host or cells: A549 cells with MUT and BCAT1 knocked out by CRISPR/CAS9
- stated.conditions: average where tested multiple times
quantity.kind: IC50

Study these solved cases before continuing.
compound: O=C(NC1CCCC(n2c(-c3ccccc3F)nc3cnc(-n4nccn4)cc32)C1O)c1ncc(Cl)s1 (centres unmarked) [Example 112]
IC50: ≤ 100 nM
//
compound: O=C(N[C@H]1CCC[C@@H](n2c(-c3ccccc3F)nc3cnc(-c4ncccn4)cc32)[C@@H]1O)c1ncc(Cl)s1 [Example 245]
IC50: ≤ 100 nM
//
compound: CO[C@@H]1C[C@H](NC(=O)c2ncc(Cl)s2)C[C@H](n2c(CC(C)C)nc3cnc(-n4nccn4)cc32)C1 (single isomer, unassigned) [Example 439]
IC50: ≤ 100 nM
//
compound: O=C(N[C@H]1C[C@H](O)C[C@@H](n2c(-c3ccccc3F)nc3cnc(-c4ccccn4)cc32)C1)c1ncc(Cl)s1 (single isomer, unassigned) [Example 252]
IC50: ≤ 100 nM
//
compound: Cc1cnn(-c2cc3c(cn2)nc(-c2ccccn2)n3[C@@H]2CCC[C@H](NC(=O)c3ccc(Br)s3)C2)n1 [Example 39]
IC50: ≤ 100 nM
//
compound: COc1ccccc1-c1nc2cnc(-c3nc[nH]n3)cc2n1[C@@H]1CCC[C@H](NC(=O)c2ncc(Cl)s2)C1 [Example 352]
IC50: ≤ 100 nM
//
compound: C#Cc1ccc(C(=O)NC2CC(n3c(-c4ccccc4F)nc4cnc(-c5ncco5)cc43)CN(C)C2)s1 (centres unmarked) [Example 116]
IC50: ≤ 100 nM
//
compound: O=C(N[C@H]1CCC[C@@H](n2c(-c3ccccc3F)nc3cnc(-c4nn[nH]n4)cc32)C1)c1ccc(Cl)s1 [Example 82]
IC50: 500 to 1000 nM
//
compound: CO[C@H]1C[C@H](NC(=O)c2ccc(Cl)s2)C[C@H](n2c(-c3ccccc3F)nc3cnc(-c4nc[nH]n4)cc32)C1 (stereo in doubt) [Example 411]
IC50: > 1000 nM
//
compound: O=C(N[C@H]1CCC[C@@H](n2c(Oc3ccccc3)nc3cnc(-n4nccn4)cc32)C1)c1ccc(Br)s1 [Example 63]
IC50: 100 to 500 nM

input: Return reported IC50; argument: CC(C)C(O)c1nc2cnc(-c3nc[nH]n3)cc2n1[C@@H]1CCC[C@H](NC(=O)c2ncc(Cl)s2)C1 (single isomer, unassigned) [Example 182]
output: 500 to 1000 nM

input: Field entry: CC(=O)N1CC(NC(=O)c2ncc(C(F)F)s2)CC(n2c(-c3ccccn3)nc3cnc(-n4nccn4)cc32)C1 (centres unmarked) [Example 121]
output: 100 to 500 nM

input: Moving on to O=C(N[C@H]1CCCC[C@@H](n2c(-c3ccccc3F)nc3cnc(-c4nnc[nH]4)cc32)C1)c1ncc(Cl)s1 (single isomer, unassigned) [Example 88]
output: ≤ 100 nM

input: // query: N#CC1CC(NC(=O)c2ncc(Cl)s2)CC(n2c(-c3ccccc3F)nc3cnc(-c4nc[nH]n4)cc32)C1 (single isomer, unassigned) [Example 451]
output: 100 to 500 nM

input: Proceed to CC(C)Cc1nc2cnc(-c3ccccn3)cc2n1[C@@H]1CCC[C@H](NC(=O)c2ncc(Cl)s2)C1 [Example 303]
output: 100 to 500 nM
